- Tested on: PC-3 prostate
- Assay: NCI-60 one-dose screen, 48 h (100 = growth as untreated, 0 = no growth, -100 = all killed)
- Condition description: 10 µM unless noted
- Protocol: Growth inhibition of the PC-3 human tumor cell line is measured as a screen for anti-cancer activity. Cells are grown in 96 well plates and exposed to the test compound for 48 hours. Compounds are tested at a single concentration, which is 10^-5 M for most compounds. The reported endpoint is percent growth (GI% or GIPRCNT), where numbers from 0 - 100% represent growth inhibition, and numbers from -100% - 0 represent cell death. For example, a value of 40 represents 60% growth inhibition. […]
The panel holds about 83,000 compounds, 20% with a hit somewhere; the sample as a whole holds those more often. Calls of active or inactive are those of the source. The calls were made as follows: active = growth percent below 10; inactive = the rest.
Measurement label: growth

Nc1nnc(CSc2nnc3n(Cc4ccccc4)c(=O)c4c5c(sc4n23)CCCC5)s1    90.6% (inactive)

input: Hello, I am looking for reported growth with PC-3 prostate for CC(=O)OC[C@]12CC[C@@H]([C@@H](C)C(N)=O)[C@@H]1[C@H]1CC[C@@H]3[C@@]4(C)CC[C@H](OC(C)=O)C(C)(C)[C@@H]4CC[C@@]3(C)[C@]1(C)CC2 . Could you help?
output: -47.4% [100 µM] (active)

input: Cool, now CC(=O)n1cc(C=O)c2ccccc21
output: 93.5% (inactive)

###

- System: RPMI-8226 leukemia
- Assay: NCI-60 one-dose screen, 48 h
- Condition description: 10 µM unless noted
The panel holds about 83,000 compounds, 20% with a hit somewhere; the sample as a whole holds those more often. Activity calls are given as the source filed them. The calls were made as follows: active = growth percent below 10; inactive = the rest.
One label from this list, please: active, inactive

Below are worked cases with known answers.
O=C(Nc1ccc(Cl)c(C(F)(F)F)c1)Nc1ccc(-c2cccnc2)cc1N1CCC(CO)CC1    inactive
CCCCCn1c(C)cc(/C=C\c2ccc3cc(C)ccc3[n+]2C)c1C    active
CCCCCCCCN(CCCCCCCC)CC(O)c1ccc(Cl)c(C)c1Cl (configuration not stated)    inactive
CC(C)[C@H]1CCC2=C3CC[C@]45OC(=O)[C@@]6(CCC(C)(C)C[C@H]64)CC[C@@]5(C)[C@]3(C)CC[C@@]21C    inactive
CCOC(=O)Nc1ccc2c(c1)/C(=N\NC(=S)NC)c1ccccc1-2    inactive
COc1ccc2c(c1)C(C)Cc1c(Cl)ncnc1N2C (configuration not stated)    active

API: the following record is the query input.
input: Lab log entry: O=C(Nc1cc(-c2cccnc2)nc(NCCCN2CCOCC2)n1)c1cc(Br)cc(C(F)(F)F)c1 — outcome as called in the assay?
output: inactive

###

- Test system: HOP-92 NSCLC
- Assay: NCI-60 one-dose screen, 48 h (100 = growth as untreated, 0 = no growth, -100 = all killed)
- Condition description: 10 µM unless noted
This is part of a sample that, as a whole, favours compounds with a hit. Of some 83,000 tested, about 20% had one in any assay. Activity calls are given as the source filed them. Rule for the calls: active = growth percent below 10; inactive = the rest.
Entries annotated with measured growth

C=C(C)[C@@H]1CC[C@]2(C(=O)OC)CC[C@]3(C)[C@H](CC[C@@H]4[C@@]5(C)CC/C(=N\OCCC(=NCCC#N)NOCCC#N)C(C)(C)[C@@H]5CC[C@]43C)[C@@H]12    -15% [100 µM] (active)
O=C(O)c1cccc(CN2CCN(c3cc4c(cc3F)c(=O)c(C(=O)O)cn4C3CC3)CC2)c1O    97% (inactive)
CCN=C1C=CC(=C(c2ccc(N(CC)CC)cc2)c2ccc(N(CC)CC)cc2)c2ccccc21    -72.8% (active)

Okay, now this molecule:
input: Return reported growth; argument: CNC(=O)c1cc(Oc2cccc3nc(NC(=O)Nc4cc(C(F)(F)F)cc(C(F)(F)F)c4)ccc23)ccn1
output: -23.7% (active)

###

- Tested on: U251 CNS
- Assay: NCI-60 one-dose screen, 48 h
- Condition description: 10 µM unless noted
The panel holds about 83,000 compounds, 20% with a hit somewhere; the sample as a whole holds those more often. Activity calls are given as the source filed them. How the source made its calls: active means growth percent below 10; inactive means the rest.
One label from this list, please: active, inactive

Below are worked cases with known answers.
COc1ccc(C2NC(=O)C(C#N)c3c2sc2c(F)cccc32)cc1 (stereo unspecified)    inactive
O=[N+]([O-])c1cc(CCl)ccc1OCCBr    inactive
c1cc2ccc1CNCCN1CCNCc3ccc(cc3)Oc3ccc(cc3)CNCCN(CCNCc3ccc(cc3)O2)CCNCc2ccc(cc2)Oc2ccc(cc2)CNCC1    active
CC1(C)S[C@@H]2[C@H](NC(=O)[C@H](C(=O)O)c3cccs3)C(=O)N2[C@H]1C(=O)O    inactive
COc1ccc(/C=C2\N=C(Nc3ccccc3)N(NC(=O)c3ccccn3)C2=O)cc1    inactive
CC(C)c1ccc(C(=O)Nc2sc3c(c2C#N)CCC(=O)C3)cc1    inactive

input: Lab log entry: C=C(CC(=O)OC)C(C)=O — outcome as called in the assay?
output: inactive

input: Cool, now CC(C)C1=NOC(=O)C1=Cc1cn(-c2ccccc2)nc1-c1ccc(Cl)cc1
output: inactive

input: Cool, now CCCCC1COc2cccc3c2N1C=C/C3=C\C(=O)n1ccc2ccccc21 (stereo unspecified)
output: inactive

input: Cool, now C=C(C)C1CCC2(C(=O)O)CCC3(C)C(CCC4C5(C)CCC(OC(=O)NCc6ccccc6)C(C)(C)C5CCC43C)C12 (stereo unspecified)
output: inactive

input: Cool, now COc1ccc(NCc2cn(-c3ccc(C(=O)O)cc3)nc2-c2ccc(C(=O)O)cc2)cc1C(F)(F)F
output: inactive

###

Entries annotated with measured growth
- Test system: EKVX NSCLC
- Assay: NCI-60 one-dose screen, 48 h (100 = growth as untreated, 0 = no growth, -100 = all killed)
- Condition description: 10 µM unless noted
The panel holds about 83,000 compounds, 20% with a hit somewhere; the sample as a whole holds those more often.
Give the quantity in %, number only.

Solved cases (3 shown):
O=C(N/N=C/c1ccc([N+](=O)[O-])cc1)c1ccc(Br)o1    112
COc1ccc2c(c1)C(C)Cc1c(Cl)ncnc1N2C (centres undefined)    12.4
C=CCCC1(C)NC(=O)NC1=O (centres undefined)    105

input: Return reported growth; argument: CCOC(=O)C(=Cc1ccccc1[N+](=O)[O-])C(=O)OCC
output: 68.6

###

- Test system: NCI-H322M lung
- Assay: NCI-60 one-dose screen, 48 h
- Condition description: 10 µM unless noted
- Experimental: Growth inhibition of the NCI-H322M human Non-Small Cell Lung tumor cell line is measured as a screen for anti-cancer activity. Cells are grown in 96 well plates and exposed to the test compound for 48 hours. Compounds are tested at a single concentration, which is 10^-5 M for most compounds. The reported endpoint is percent growth (GI% or GIPRCNT), where numbers from 0 - 100% represent growth inhibition, and numbers from -100% - 0 represent cell death. […]
This is part of a sample that, as a whole, favours compounds with a hit. Of some 83,000 tested, about 20% had one in any assay. Activity calls are given as the source filed them. How the source made its calls: active means growth percent below 10; inactive means the rest.
One label from this list, please: true (active), false (inactive)

O=C1NC(=O)c2cc([N+](=O)[O-])cc3cccc1c23    false
CCCCCCCCCN(CCCCCCCCC)C(C)C(=O)c1ccc2cc(Br)c3ccccc3c2c1 (stereo unspecified)    false
O=C(NNc1ccc(-c2ccccc2)nn1)c1ccc(F)cc1    false
CCc1cccc(Cl)c1    false
COc1ncc(-c2ccc3nc(N)n(-c4ccccc4C(F)(F)F)c(=O)c3c2)cc1S(=O)(=O)Nc1ccc(F)cc1F    true

API: the following record is the query input.
input: Lab log entry: C=C(C)[C@@H]1CC[C@]2(COC(=O)c3ccccc3C(=O)O)CC[C@]3(C)[C@H](CC[C@@H]4[C@@]5(C)CC[C@H](OC(=O)c6ccccc6C(=O)O)C(C)(C)[C@@H]5CC[C@]43C)[C@@H]12 — outcome as called in the assay?
output: false

###

Entries annotated with measured growth
- Test system: SR leukemia
- Assay: NCI-60 one-dose screen, 48 h (100 = growth as untreated, 0 = no growth, -100 = all killed)
- Condition description: 10 µM unless noted
Compounds without any hit were thinned out: in the full panel of roughly 83,000, 20% have a hit.
Give the quantity in %, number only.

Solved cases (5 shown):
CC(C)(C)OC(=O)N1C=C/C(=C\Cn2cc(-c3ccccc3)nn2)CC1    57.9
CCOC(=O)C(C(C)=O)c1nc2sc3cc(Cl)c(Cl)cc3n2c(=O)c1C#N (centres undefined)    105
COc1ccc(C2CC(c3cc(OC)c(OC)c(OC)c3)=NN2C(C)=O)cc1OCC(=O)Nc1nc2ccc(C(F)(F)F)cc2s1 (centres undefined)    63.4
COc1cc2c(c(OC)c1OC)-c1cc(I)c(O)cc1[C@@H](NC(C)=O)CC2    33.2
CCCN1CC(c2ccc(OC)c(OC)c2)=C(c2cn(C(=O)OCC)c3ccccc23)C1=O    25.3

input: Return reported growth; argument: CCN(CC)CCCOc1ccc2c(c1)O/C(=C\c1cccc(OC)c1)C2=O
output: 63.3

input: Cool, now COc1ccc2c(c1)c(-c1noc(-c3cn(C)c4ncc(F)cc34)n1)cn2C
output: 83.8

input: Cool, now O=C1CC(c2ccccc2)Cc2nc3ccc(Br)cc3cc21 (centres undefined)
output: 13.1

input: Cool, now Fc1ccc(NC(=S)c2ccccc2)cc1
output: 102
